protocol.details: Human hepatocyte assay (metabolic stability)
Format: in vitro ADME
measurement.parameters: human hepatocytes, in vitro intrinsic clearance
In this section, each of the compounds is paired with its reported Clint.
Write down the numeric answer in μL/min/10^6 cells and omit the unit.

Answered examples (6):
COCC(F)(F)CN1[C@H](c2ccc(NC3CN(CCCF)C3)cc2OC)c2ccc3[nH]ncc3c2C[C@H]1C; 11
C[C@@H]1Cc2c(ccc3[nH]ncc23)[C@@H](c2ccc(NC3CN(CCCF)C3)cn2)N1CC(F)F; 5
COc1cc(NC2CN(CCCF)C2)ccc1[C@@H]1c2ccc3[nH]ncc3c2C[C@@H](C)N1CC(C)(F)F; 5
COCC(F)(F)CN1[C@H](c2ccc(NC3CN(CCCF)C3)cn2)c2ccc3[nH]ncc3c2C[C@H]1C; 6
C[C@@H]1Cc2c(ccc3[nH]ncc23)[C@@H](c2ccc(NC3CN(CCCF)C3)cn2)N1CC1(F)CC1; 5
COc1cc(NC2CN(CCCF)C2)ccc1[C@@H]1c2ccc3[nH]ncc3c2C[C@@H](C)N1CC(F)(F)F; 5

Incoming: Please report the recorded Clint for "C[C@@H]1Cc2c(ccc3[nH]ncc23)[C@@H](c2ccc(NC3CN(CCCF)C3)cc2)N1CC(F)F" .
Outgoing: 4
